target: PD-1/PD-L1 (Homo sapiens (Human), UniProt Q9NZQ7); assay: PD-1/PD-L1 Binding Assay (Alphascreen); conditions: numeric values
Sequence (Q9NZQ7 19-238): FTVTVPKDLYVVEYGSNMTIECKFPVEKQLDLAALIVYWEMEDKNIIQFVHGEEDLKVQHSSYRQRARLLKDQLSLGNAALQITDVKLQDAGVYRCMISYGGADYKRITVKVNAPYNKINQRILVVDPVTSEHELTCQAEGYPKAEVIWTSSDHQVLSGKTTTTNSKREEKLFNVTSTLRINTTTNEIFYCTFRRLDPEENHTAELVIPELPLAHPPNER
pIC50: −log10 of the molar value.
Measured Attribute: pIC50

Illustrative cases are given below, each with its answer.
Compound | Assayed Target | pIC50
Cc1c(-c2nc3c(o2)CNC3)cccc1-c1cccc(-c2nc3cc(CN4CCC[C@H]4C(=O)O)c(OC(F)F)cc3o2)c1C [Example 202] | PD-1/PD-L1 (Homo sapiens (Human), UniProt Q9NZQ7) | 9.43
Cc1c(-c2ccc(CN3CCCC3)nc2)cccc1-c1cccc(-c2nc3cc(CN4CCC[C@H]4C(=O)O)c(OC(F)F)cc3o2)c1C [Example 263] | PD-1/PD-L1 (Homo sapiens (Human), UniProt Q9NZQ7) | 9.01
Cc1c(-c2nc3cc(CN4CCC[C@H]4C(=O)O)c(OC(F)F)cc3o2)cccc1-c1cccc(-c2nc3cc(CN4CC[C@@H](C)C4)cc(C#N)c3o2)c1C [Example 131] | PD-1/PD-L1 (Homo sapiens (Human), UniProt Q9NZQ7) | 8.64
Cc1c(-c2nc3cc(CN4CCC[C@H]4C(=O)O)c(OC(F)F)cc3o2)cccc1-c1cccc(-c2nc3cc(CN4CCCC4)c(F)c(F)c3o2)c1C#N [Example 118] | PD-1/PD-L1 (Homo sapiens (Human), UniProt Q9NZQ7) | 7.11

(A) Cc1c(-c2nc3cc(CN4CCC[C@H]4C(=O)O)c(OC(F)F)cc3o2)cccc1-c1cccc(-c2nc3cc(CN4CCCC4(C)C)c(OC(F)F)cc3o2)c1C [Example 62]
(B) Cc1c(-c2nc3cc(CN4CCC[C@H]4C(=O)O)c(OC(F)F)cc3o2)cccc1-c1cccc(-c2nc3cc(CN4CCCC4)c(F)c(F)c3o2)c1C [Example 102]
QUERY: Select one: A or B . Criterion: greater recorded pIC50. Which one? Tell me its label.
RESULT: A
(A: 8.59, B: 7.74)
